Molecular target: T1, TNFR2-His (Sino Biological, 10417-H08H, NP_001057.1 Met1-Asp257, with multi-histidine tag expressed on … (human, UniProt P20333 23-257))
T1 construct: range 1-257; Bought protein; also called recombinant human TNFR2 protein; TNFR2-His antigen; not shown: C-terminal multi-histidine tag
T1 sequence (looked up): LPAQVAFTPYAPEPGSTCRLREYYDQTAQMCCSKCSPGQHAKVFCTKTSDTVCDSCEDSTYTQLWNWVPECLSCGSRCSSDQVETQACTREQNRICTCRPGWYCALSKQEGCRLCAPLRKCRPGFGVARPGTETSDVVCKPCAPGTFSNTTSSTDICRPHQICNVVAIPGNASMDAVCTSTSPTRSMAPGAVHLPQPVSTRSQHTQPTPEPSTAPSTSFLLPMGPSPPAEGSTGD
Test: BLI, antibody captured on AHC probe, TNFR2 in solution
Would you kindly list koff for each of these binders?
State the value, then name its unit.

These solved cases illustrate the format of a correct answer.
12E12-huVH7 + huVL4(P08941) (antibody, V domains shown, Humanized 12E12) VH: QVQLVQSGAEVKKPGASVKVSCKASGYTITDFYIHWVRQAPGKGLEWMGRVDPEDGNTEYAQKFQGRVTMTTDTSTDTAYMELSSLRSEDTAVYYCSTWDGFSYFDYWGQGTTVTVSS VL: EAVVTQSPATLSLSPGERATLSCRSSTGPVTTNNYANWVQQKPGQAFRGLIGGTNDRAPGIPARFSGSGSGTDTTLTISSLQPEDFAVYYCALWYRNHWVFGGGTKLEIK: 0.0035 s⁻¹
12E12huVH3 + huVL4(P07290) (antibody, V domains shown, Humanized 12E12) VH: QVQLVQSGAEVKKPGASVKVSCKVSGFNIKDFYIHWVRQAPGKGLEWMGRVDPEDGNTEYAQKFQGRVTMTTDTSTDTAYMELSSLRSEDTAVYYCSTWDGFSYFDYWGQGTTVTVSS VL: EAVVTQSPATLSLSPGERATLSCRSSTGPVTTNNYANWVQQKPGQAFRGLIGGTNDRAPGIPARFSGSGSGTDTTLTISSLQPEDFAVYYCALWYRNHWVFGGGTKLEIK: 0.00407 s⁻¹
12E12-huVH8 + huVL4(P08942) (antibody, V domains shown, Humanized 12E12) VH: EVQLVQSGAEVKKPGATVKISCKVSGYTITDFYIHWVQQAPGKGLEWMGRVDPEDGNTEYAPNFQDRVTITADTSTDTAYMELSSLRSEDTAVYYCSTWDGFSYFDYWGQGTTVTVSS VL: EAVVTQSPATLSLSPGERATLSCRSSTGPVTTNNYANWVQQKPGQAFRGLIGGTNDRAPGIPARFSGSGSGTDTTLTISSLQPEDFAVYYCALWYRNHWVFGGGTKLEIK: 0.00437 s⁻¹

Next:
Enquiry: Query: koff; subject: 12E12huVH3 + huVL2(P07282) (antibody, V domains shown, Humanized 12E12) VH: QVQLVQSGAEVKKPGASVKVSCKVSGFNIKDFYIHWVRQAPGKGLEWMGRVDPEDGNTEYAQKFQGRVTMTTDTSTDTAYMELSSLRSEDTAVYYCSTWDGFSYFDYWGQGTTVTVSS VL: QAVVTQEPSLTVSPGGTVTLTCRSSTGPVTTNNYANWVQQKPGQAFRGLIGGTNDRAPGVPARFSGSLLGGKAALTLSGAQPEDEAEYYCALWYRNHWVFGGGTKLTVL
Return: 0.00487 s⁻¹

Cited source: patent US20240392024A1
